Target: T1, human ferroportin (SLC40A1) fused in frame with GFP, stably expressed in HEK293 cells (human, UniProt Q9NP59 1-571)
T1 sequence (looked up): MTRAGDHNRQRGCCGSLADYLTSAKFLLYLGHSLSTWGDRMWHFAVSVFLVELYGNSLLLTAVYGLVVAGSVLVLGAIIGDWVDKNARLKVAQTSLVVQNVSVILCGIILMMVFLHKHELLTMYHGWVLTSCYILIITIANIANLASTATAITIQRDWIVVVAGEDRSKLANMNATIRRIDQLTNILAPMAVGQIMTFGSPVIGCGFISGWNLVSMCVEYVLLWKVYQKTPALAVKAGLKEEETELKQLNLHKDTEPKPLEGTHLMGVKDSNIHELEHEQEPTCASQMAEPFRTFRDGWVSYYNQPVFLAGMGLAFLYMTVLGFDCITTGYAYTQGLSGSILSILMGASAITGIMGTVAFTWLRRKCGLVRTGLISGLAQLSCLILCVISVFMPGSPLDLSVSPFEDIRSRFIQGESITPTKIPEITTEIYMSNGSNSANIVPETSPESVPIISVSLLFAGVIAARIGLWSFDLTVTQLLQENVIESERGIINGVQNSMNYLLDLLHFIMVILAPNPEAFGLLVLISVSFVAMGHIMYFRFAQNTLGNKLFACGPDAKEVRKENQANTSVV
Experiment: cell-based or functional assay
Starred links: 1 amine or outer side, 2 acyl side, 3 side chain; linkers in the order of their positions; H or OH if unused. Non-standard residues stand in square brackets, D forms with d. Groups on a side chain read outwards from the residue. No end group written: not given here. *: point of attachment. N_Butyl_Phe = CCCCN([C@@H](Cc1ccccc1)C(=O)[*:2])[*:1]; C18 diacid = O=C(O)CCCCCCCCCCCCCCCCC(=O)*; Dip = N[C@H](C(=O)O)C(c1ccccc1)c1ccccc1; γGlu = O=C(O)[C@H](CCC(=O)[*:2])N[*:1]; Palmitoyl = CCCCCCCCCCCCCCCC(=O)*; Myristoyl = CCCCCCCCCCCCCC(=O)*; β3hF = N[C@H](CC(=O)O)Cc1ccccc1; Isovaleryl = CC(C)CC(=O)*; AEEA = NCCOCCOCC(=O)O; Ahx = NCCCCCC(=O)O; NHPr = CCCN*

BINDER	PREFIX OPERATOR	FPN IC50 [nM]
Isovaleryl-LTH[Dip]K([AEEA-AEEA-γGlu-C18 diacid])-NHPr (SMILES CCCNC(=O)[C@H](CCCCNC(=O)COCCOCCNC(=O)COCCOCCNC(=O)CC[C@H](NC(=O)CCCCCCCCCCCCCCCCC(=O)O)C(=O)O)NC(=O)[C@@H](NC(=O)[C@H](Cc1c[nH]cn1)NC(=O)[C@@H](NC(=O)[C@H](CC(C)C)NC(=O)CC(C)C)[C@@H](C)O)C(c1ccccc1)c1ccccc1) [Isovaleric Acid-L-T-H-[Dpa]-[Lys(1PEG2_1PEG2_IsoGlu_C18_Diacid)]-Propyl_Amine]	>	3000
Heptanoic_Acid-LTH[Dip]PK([Ahx-Palmitoyl])[N_Butyl_Phe] [Heptanoic_Acid-L-T-H-[Dpa]-P-[Lys(Ahx_Palm)]-N_Butyl_Phe]	>	3000
Isovaleryl-ETHFPAIK([γGlu-Myristoyl])FEPRSKGA[dK]-NH2 [Isovaleric Acid-E-T-H-F-P-A-I-[Lys(IsoGlu_C14_acid)]-F-E-P-R-S-K-G-A-[(D)Lys]-NH2]	=	718
Isovaleryl-K(Glu)TH[Dip]PAIK([Ahx-Palmitoyl])[β3hF]-NH2 [Isovaleric Acid-[Lys(Glu-T-H-[Dpa]-P-A-I-[Lys(Ahx_Palm)]-[bhPhe]-NH2]	=	27
Octanoic_Acid-LTH[Dip]PK([Ahx-Palmitoyl])-N_Butyl_Phe [Octanoic_Acid-L-T-H-[Dpa]-P-[Lys(Ahx_Palm)]-N_Butyl_Phe]	=	1020
